# maps each entry to its GI50
- Tested on: SK-MEL-28
- TEST_SUMMARY: NCI tumour cell line growth inhibition, 48 h
Activity calls are given as the source filed them. No stated cut-off is given here; in the data, active = GI50 up to about 1.1 µM and inactive = higher. Peptide text beside a SMILES is read from it.
READOUT_TYPE: GI50

COMPOUND	READOUT_TYPE	RESULT_VALUE
Cc1nn(C(=O)Cc2ccccc2)c2c1C(c1ccc(/C=C/c3ccccc3)cc1)SC(=N)N2 (configuration not stated)	GI50	> 100 µM (inactive)
CC#C[I+]c1ccccc1	GI50	23.6 µM (inactive)
COc1cc([C@@H]2c3cc4c(cc3[C@@H](NCCNCCO)[C@H]3COC(=O)[C@H]23)OCO4)cc(OC)c1O	GI50	2.67 µM (inactive)
CC(=O)NC(CS)C(=O)NC(CO)C(=O)NC(CO)C(=O)NC(Cc1c[nH]c2ccccc12)C(=O)N1CCCC1C(=O)NC(CO)C(=O)NC(Cc1c[nH]c2ccccc12)C(=O)NC(Cc1c[nH]cn1)C(=O)NC(CO)C(=O)NC(Cc1c[nH]c2ccccc12)C(=O)NCC(=O)NCC(=O)NC(C)C(=O)NC(CCC(N)=O)C(=O)NC(CCCCN)C(=O)NC(C)C(=O)NC(CCCNC(=N)N)C(=O)NC(CCCCN)C(N)=O (configuration not stated) (Ac-CSSWPSWHSWGGAQKARK-NH2; configuration not given here)	GI50	11.1 µM (inactive)
C[n+]1c(-c2ccc(NC(=O)c3ccc(C(=O)Nc4ccc(-c5cn6ccccc6[n+]5C)cc4)cc3)cc2)cn2ccccc21	GI50	> 100 µM (inactive)
Cc1nnc2ccccc2c1O	GI50	> 100 µM (inactive)
CSCCC(C(=O)O)N(C)C (configuration not stated)	GI50	> 100 µM (inactive)

Numbers sourced from ChEMBL document CHEMBL1201862.
